Source: patent US20260124146A1

# assay_name: solubility assessment of micronized tolcapone in buffers (HPLC assay and visual observation)
# Assay type: physicochemical
# test_settings: buffer, pH 7.4, aqueous buffer, thermodynamic from solid, pH 7.4, 1 Hour, replicates N=1, N=2; read-out: Assay (solubility by HPLC)
recorded_metric: solubility at 1 h (µg/mL)
Kindly provide the numeric value in µg/mL only, without the unit symbol.

Input line: Param item = Cc1ccc(C(=O)c2cc(O)c(O)c([N+](=O)[O-])c2)cc1 ; retrieve measured solubility at 1 h.
Output line: 473

---

# assay_name: solubility assessment of micronized tolcapone in buffers (HPLC assay and visual observation)
# Type: physicochemical
# test_settings: buffer, pH 2, aqueous buffer, thermodynamic from solid, pH 2.0, 2 Hour, replicates N=1, N=2; read-out: Assay (solubility by HPLC)
recorded_metric: solubility at 2 h (µg/mL)
Note: unit µg/mL is implicit; provide only the numeric part.

Input line: // solubility at 2 h lookup, key: Cc1ccc(C(=O)c2cc(O)c(O)c([N+](=O)[O-])c2)cc1
Output line: 20

---

# assay_name: solubility assessment of micronized tolcapone in buffers (HPLC assay and visual observation)
# Assay type: physicochemical
# test_settings: buffer, pH 4.5, aqueous buffer, thermodynamic from solid, pH 4.5, 1 Hour, replicates N=1, N=2; read-out: Assay (solubility by HPLC)
recorded_metric: solubility at 1 h
Record the result as number plus unit.

Input line: Form field: reported solubility at 1 h of Cc1ccc(C(=O)c2cc(O)c(O)c([N+](=O)[O-])c2)cc1 [tolcapone]
Output line: 45 µg/mL

---

# assay_name: solubility assessment of micronized tolcapone in buffers (HPLC assay and visual observation)
# Format: physicochemical
# test_settings: buffer, pH 4.5, aqueous buffer, thermodynamic from solid, pH 4.5, 1 Hour; read-out: Mean Assay (solubility by HPLC)
recorded_metric: solubility at 1 h (µg/mL)
Field format: number, assumed µg/mL, no unit text.

Input line: solubility at 1 h lookup needed for Cc1ccc(C(=O)c2cc(O)c(O)c([N+](=O)[O-])c2)cc1 , thanks.
Output line: 45
